# experimental.details: acute toxicity, single oral administration to mice
# cond: mouse, in vivo, single oral administration (p.o.)
# Excerpt: In the following Table there are given the results obtained with representative products provided by the invention. There are given for each of the compounds listed therein the dosage administered (in μmol/kg p.o.) as well as the cholesterol resorption (CHORES) determined in percentages of the cholesterol resorption of untreated control animals. […]
Form field: LD50 (one value per entry).

> print(dat)
                         compound.structure   assay.value
1  C[C@@H]1N=C(c2ccccc2Cl)c2c(ccc(NC(=O)NC(CO)(CO)CO)c2Br)N(C)C1=O  > 5000 mg/kg

Please examine the following record next.
What does the record list as LD50 for C[C@@H]1N=C(c2ccccc2Cl)c2c(ccc(NC(=O)NC(C)(CO)CO)c2Br)N(C)C1=O ?
> 5000 mg/kg
